Tested on: PC15
Assay: qHTS profiling for inhibitors of Plasmodium falciparum proliferation (AID 504749); further: nearly all actives have a fitted effect of over 60% in size
Conditions: P. falciparum in erythrocytes, SYBR Green DNA, 72 h; series mostly up to 28.7 µM
Inconclusive results are not listed. The source made the active and inactive calls. The call rests on the fitted dose curve; in most records, active means well fitted inhibition curve with a large enough effect; inconclusive means small, poorly fitted or top-dose-only effect; inactive means flat fitted curve, though single readings scatter.
# valid calls are T (active), F (inactive); nothing else

Worked examples, 3 molecules total:
CN1CCN(c2c(F)cc3c(=O)c(C(=O)O)cn4c3c2OCN4C)CC1    F
CNC(=O)c1cc(Oc2ccc(NC(=O)Nc3ccc(Cl)c(C(F)(F)F)c3)cc2)ccn1    T
CNNCc1ccc(C(=O)NC(C)C)cc1    F

Field: next molecule
Req: Recorded test outcome, item CC(=O)Oc1ccccc1C(=O)Nc1ncc([N+](=O)[O-])s1
Resp: F

###

System: HaCat
Experiment: Cytotoxic Profiling of Annotated Libraries Using Quantitative High-Throughput Screening (AID 1296008); further: on the % scale 0 is the no-effect control and ±100 the full control effect; nearly all actives have a fitted effect of over 60% in size
Details: Five cell lines viability, CellTiter-Glo ATP luminescence, 48-72 h; stronger effect = lower value
Records with an inconclusive call do not appear. Activity calls are given as the source filed them. Calls follow the shape of the dose curve; as a rule, active = well fitted inhibition curve with a large enough effect; inconclusive = small, poorly fitted or top-dose-only effect; inactive = flat fitted curve, though single readings scatter.
measure.name: max response

Check out these entries, answers already filled in.
CS(=O)(=O)c1ccc([C@@H](O)[C@@H](CO)NC(=O)C(Cl)Cl)cc1    4.09% (inactive)
Clc1ccccc1CN1CCc2sccc2C1    -7.82% (inactive)
COC(=O)Nc1nc2ccc(C(=O)c3ccccc3)cc2[nH]1    4.64% (inactive)
CCN1CCCC1CNC(=O)c1cc(S(N)(=O)=O)ccc1OC (centres undefined)    2.07% (inactive)
C[C@@H]1C[C@H]2[C@@H]3CCC4=CC(=O)C=C[C@]4(C)[C@@]3(Cl)[C@@H](O)C[C@]2(C)[C@@]1(OC(=O)c1ccco1)C(=O)CCl    -15.9% (inactive)

Req: Supply reported max response belonging to this molecule: CC(=O)[C@H]1CC[C@H]2[C@@H]3CC=C4C[C@@H](O)CC[C@]4(C)[C@H]3CC[C@]12C
Resp: 2.2% (inactive)

###

System: CP286
Assay: qHTS profiling for inhibitors of Plasmodium falciparum proliferation (AID 504749); further: nearly all actives have a fitted effect of over 60% in size
Details: P. falciparum in erythrocytes, SYBR Green DNA, 72 h; series mostly up to 28.7 µM
Results filed as inconclusive are left out. Calls of active or inactive are those of the source. Calls follow the shape of the dose curve; as a rule, active = well fitted inhibition curve with a large enough effect; inconclusive = small, poorly fitted or top-dose-only effect; inactive = flat fitted curve, though single readings scatter.
# valid calls are class 1 for active, class 0 for inactive; nothing else

Worked examples, 6 compounds total:
Cc1oc(=O)oc1CN1CCN(c2cc3c(cc2F)c(=O)c(C(=O)O)c2n3C(C)S2)CC1 (centres undefined)    class 1
O=c1cc(O)c(Cl)c[nH]1    class 0
CC(C)(Sc1cc(C(C)(C)C)c(O)c(C(C)(C)C)c1)Sc1cc(C(C)(C)C)c(O)c(C(C)(C)C)c1    class 1
C[C@@H](NCCCc1cccc(C(F)(F)F)c1)c1cccc2ccccc12    class 1
CC(C)NCC(O)c1ccc(NS(C)(=O)=O)cc1 (centres undefined)    class 0
CCCN[C@H]1CCc2nc(N)sc2C1    class 0

Req: Recorded test outcome, item O=c1oc2c(O)c(O)cc3c(=O)oc4c(O)c(O)cc1c4c23
Resp: class 1

Req: Recorded test outcome, item CCN(C)C(=O)Oc1cccc([C@H](C)N(C)C)c1
Resp: class 0

Req: Recorded test outcome, item CC1=NN(c2ccccc2)C(=O)C1
Resp: class 0

Req: Recorded test outcome, item CC(C)OC(=O)C(C(=O)OC(C)C)=C1SC=CS1
Resp: class 0

Req: Recorded test outcome, item CNCC[C@H](Oc1cccc2ccccc12)c1cccs1
Resp: class 1

Req: Recorded test outcome, item CNS(=O)(=O)Cc1ccc2[nH]cc(CCN(C)C)c2c1
Resp: class 0

Req: Recorded test outcome, item CNC1CCCN(c2c(F)cc3c(=O)c(C(=O)O)cn(C4CC4)c3c2OC)C1 (centres undefined)
Resp: class 0

Req: Recorded test outcome, item CC(C)Cn1cnc2c(N)nc3ccccc3c21
Resp: class 0

Req: Recorded test outcome, item CN(CCOc1ccc(CC2SC(=O)NC2=O)cc1)c1ccccn1 (centres undefined)
Resp: class 0

Req: Recorded test outcome, item COc1cc([C@@H]2c3cc4c(cc3[C@H](O)[C@H]3COC(=O)[C@H]23)OCO4)cc(OC)c1OC
Resp: class 1

Req: Recorded test outcome, item C#CCN[C@@H]1CCc2ccccc21
Resp: class 0

Req: Recorded test outcome, item CCc1c2c(nc3ccc(OC(=O)N4CCC(N5CCCCC5)CC4)cc13)-c1cc3c(c(=O)n1C2)COC(=O)[C@]3(O)CC
Resp: class 0

Req: Recorded test outcome, item CC(C)(C#N)c1cc(Cn2cncn2)cc(C(C)(C)C#N)c1
Resp: class 0

Source: PubChem BioAssay (NCATS)
